- System: SK-MEL-5 melanoma
- PROTOCOL TEXT: NCI-60 one-dose screen, 48 h
- REPORTED CONDITIONS: 10 µM unless noted
About 83,000 compounds went through this panel and 20% of them were active in at least one assay; those are over-represented in the sample as a whole. Activity calls are given as the source filed them. The calls were made as follows: active = growth percent below 10; inactive = the rest.
Outcomes: TRUE for active, FALSE for inactive

{"columns": ["MOLECULAR STRING", "CLASS NAME"],
 "data": [
  ["COc1ccc2[nH]c(O)c(N=Nc3nc(-c4ccc(Cl)cc4)cs3)c2c1", "TRUE"],
  ["CN(C)c1nc(NCCNS(=O)(=O)c2ccc(C(=O)/C=C/c3ccc(C(F)(F)F)cc3)cc2)nc(N2CCOCC2)n1", "TRUE"],
  ["O=C(Cn1c(/C=C/c2ccc([N+](=O)[O-])cc2)nc2ccccc2c1=O)Nc1ccccc1", "FALSE"],
  ["Cn1cc(-c2cc3nc(-c4c[nH]c5ccccc45)cc(N)n3n2)c2ccccc21", "TRUE"]
]}

---

- Tested on: OVCAR-4 ovarian
- PROTOCOL TEXT: NCI-60 one-dose screen, 48 h
- REPORTED CONDITIONS: 10 µM unless noted
- Protocol: Growth inhibition of the OVCAR-4 human tumor cell line is measured as a screen for anti-cancer activity. Cells are grown in 96 well plates and exposed to the test compound for 48 hours. Compounds are tested at a single concentration, which is 10^-5 M for most compounds. The reported endpoint is percent growth (GI% or GIPRCNT), where numbers from 0 - 100% represent growth inhibition, and numbers from -100% - 0 represent cell death. For example, a value of 40 represents 60% growth inhibition. […]
About 83,000 compounds went through this panel and 20% of them were active in at least one assay; those are over-represented in the sample as a whole. Activity calls are given as the source filed them. Rule for the calls: active = growth percent below 10; inactive = the rest.
Outcomes: yes (1) (active), no (0) (inactive)

{"columns": ["COMPOUND", "CLASS NAME"],
 "data": [
  ["O=C1c2cccc3c(N4CCN(c5ccccc5)CC4)ccc(c23)C(=O)N1c1cccc(-c2nn(-c3ccccc3)cc2-c2nc3ccccc3s2)c1", "no (0)"],
  ["O=C1/C(=C/c2cccc3c2OCO3)Cc2c(F)cc(Br)cc21", "no (0)"],
  ["COc1ccc(C2=Nc3c(N)nc(N)nc3NC(c3ccc(Oc4nc(Nc5ccc(F)cc5)nc(N(C)C)n4)c(OC)c3)C2)cc1 (stereo not given)", "no (0)"],
  ["O=C1Nc2cc(-c3ccc(NS(=O)(=O)c4ccc([N+](=O)[O-])cc4)cc3)ccc2/C1=C/c1ccc[nH]1", "yes (1)"],
  ["Cc1ccc(N=Nc2c(N)nn3c(-c4cc5ccccc5oc4=O)ccnc23)cc1", "no (0)"],
  ["COc1ccc(-c2cc(C(=O)OCc3ccc(Br)cc3)nn2-c2ccc(S(C)(=O)=O)cc2)cc1OC", "no (0)"],
  ["CCc1ccccc1-c1nc(CN[C@@H]2C[C@@H]3C[C@H]([C@H]2C)C3(C)C)c(C)o1", "yes (1)"],
  ["Cc1ccc(C(C)C)cc1Oc1cccc(-c2c(-c3ccc(C(F)(F)F)cc3)ncn2C2CCNCC2)n1", "yes (1)"],
  ["O=C(Nc1nc2ccc([N+](=O)[O-])cc2s1)Nc1ccccc1F", "no (0)"],
  ["Cc1ccc(NC(=O)N/N=C/c2c[nH]c3ccccc23)c(C)c1", "no (0)"],
  ["COc1cc(/C=N/NC(=O)c2ccc(OCc3nc4ccc(Cl)cc4[nH]3)cc2)cc(OC)c1OC", "no (0)"],
  ["C=CCSc1nnc(-c2ccc(-c3nc4ccccc4[nH]3)cc2)o1", "no (0)"],
  ["CN1C(=O)C(O)(CC(=O)c2cc3ccccc3oc2=O)c2ccccc21 (stereo not given)", "no (0)"],
  ["COc1ccc(C(=O)C[n+]2cccc3c4ccccc4ccc32)cc1", "no (0)"],
  ["COC(=O)c1c(C(=O)OC)c2c3ccccc3c3ccccc3n2c1C(=O)C(F)(F)F", "no (0)"],
  ["COc1cccc(/C=C/c2nc3ccccc3c(=O)n2CC(=O)Nc2ccccc2)c1", "yes (1)"],
  ["Cc1ccc2nc(NC(=O)Nc3cccc(Cl)c3)sc2c1", "no (0)"],
  ["CCN(C(=O)CN1C(=O)/C(=C/c2ccco2)SC1=S)C1CCS(=O)(=O)C1 (stereo not given)", "no (0)"],
  ["Cc1ccc2c(c1)/C(=C/C(=O)c1cc3ccccc3oc1=O)C(=O)N2", "no (0)"],
  ["N#CC1=C(c2cccs2)Nc2c(c(-c3ccccc3)nn2-c2ccccc2)C12C(=O)Nc1ccccc12 (stereo not given)", "no (0)"]
]}

---

Listing of entries alongside the reported growth.
- System: SK-MEL-5 melanoma
- PROTOCOL TEXT: NCI-60 one-dose screen, 48 h (100 = growth as untreated, 0 = no growth, -100 = all killed)
- REPORTED CONDITIONS: 10 µM unless noted
Compounds without any hit were thinned out: in the full panel of roughly 83,000, 20% have a hit.

{"columns": ["COMPOUND", "MEASUREMENT UNIT", "growth"],
 "data": [
  ["O=Cc1cncc(-c2ccc3ncnc(N4CCc5cc(F)c(Cl)cc54)c3c2)c1", "%", 19.5],
  ["O=C(CSc1nnc(-c2ccc(-c3nc4ccccc4[nH]3)cc2)o1)Nc1ccccc1", "%", 82.7],
  ["NNc1ncnc2sc3c(c12)CCN(Cc1ccccc1)C3", "%", 48],
  ["COc1sc(/C=N/NC(=O)c2[nH]c3ccc(Br)cc3c2-c2ccccc2)cc1Br", "%", -53.5],
  ["O=C(N/N=C/c1occc1Br)c1[nH]c2ccc(Br)cc2c1-c1ccccc1", "%", -97.6],
  ["N#CC1=C(c2cccs2)Nc2c(c(-c3ccccc3)nn2-c2ccccc2)C12C(=O)Nc1ccc(Cl)cc12 (centres undefined)", "%", 25.1],
  ["COc1cc(/C=C/C(=O)c2cnn(-c3cc(=O)[nH]c4ccc(C)cc34)c2C)cc(OC)c1OC", "%", -95.2],
  ["N#C/C(=C/c1ccc([N+](=O)[O-])cc1)c1nnc(NC(=O)c2ccc(-n3c(=O)[nH]c4ccccc4c3=O)cc2)s1", "%", 99],
  ["C[C@H]1[C@@H](CC(=O)N[C@@H](Cc2coc3ccccc23)B(O)O)O[C@@H]2OC3(C)CC[C@H]4[C@H](C)CC[C@@H]1[C@@]24O3", "%", -83.4]
]}

---

- System: MDA-MB-435 melanoma
- PROTOCOL TEXT: NCI-60 one-dose screen, 48 h (100 = growth as untreated, 0 = no growth, -100 = all killed)
- REPORTED CONDITIONS: 10 µM unless noted
- Protocol: Growth inhibition of the MDA-MB-435 human Melanoma tumor cell line is measured as a screen for anti-cancer activity. Cells are grown in 96 well plates and exposed to the test compound for 48 hours. Compounds are tested at a single concentration, which is 10^-5 M for most compounds. The reported endpoint is percent growth (GI% or GIPRCNT), where numbers from 0 - 100% represent growth inhibition, and numbers from -100% - 0 represent cell death. […]
This is part of a sample that, as a whole, favours compounds with a hit. Of some 83,000 tested, about 20% had one in any assay.
Short version: growth at least 60% is Condition met, less is Condition not met.

{"columns": ["MOLECULE", "SYSTEM", "CLASS NAME"],
 "data": [
  ["COc1cc(CNC(=O)C[C@H](C)CCC=C(C)C)ccc1OCc1cn(-c2ccccc2Cl)nn1", "MDA-MB-435 melanoma", "Condition met"],
  ["COc1sc(/C=N/NC(=O)c2[nH]c3ccc(Br)cc3c2-c2ccccc2)cc1Cl", "MDA-MB-435 melanoma", "Condition not met"],
  ["COc1ccc(NC(=O)CSc2nnc(-c3ccc(-c4nc5ccc(Cl)cc5[nH]4)cc3)o2)cc1", "MDA-MB-435 melanoma", "Condition not met"],
  ["Cn1cc(-c2cc(N)n3nc(-c4c[nH]c5ccc(Cl)cc45)cc3n2)c2cc(Br)cnc21", "MDA-MB-435 melanoma", "Condition not met"],
  ["COC(=O)c1cc(C(=O)C(C)(C)C)n2c3ccccc3c3ccccc3c12", "MDA-MB-435 melanoma", "Condition met"],
  ["O=c1[nH]c2ccccc2cc1CSc1ccccc1Nc1nccc(-c2ccc3c(c2)OCO3)n1", "MDA-MB-435 melanoma", "Condition met"],
  ["Oc1ccc(Cl)c(Nc2ncnc3c2cnn3CC(Cl)c2ccc(Br)cc2)c1 (centres undefined)", "MDA-MB-435 melanoma", "Condition not met"],
  ["COc1cc2cc(C(=O)N3C[C@@H](CCl)c4c3cc(OC(=O)N(CCC(=O)N3CCN(C)CC3)[C@H]3CCSSC3)c3ccccc43)[nH]c2c(OC)c1OC", "MDA-MB-435 melanoma", "Condition not met"],
  ["NS(=O)(=O)c1ccc(Nc2nc(SCC(=O)c3ccc(F)cc3)nc3ccccc23)cc1", "MDA-MB-435 melanoma", "Condition not met"]
]}
